Data provenance is PubChem BioAssay (NCI).

- System: A549/ATCC NSCLC
- method_summary: NCI-60 one-dose screen, 48 h (100 = growth as untreated, 0 = no growth, -100 = all killed)
- protocol_conditions: 10 µM unless noted
The panel holds about 83,000 compounds, 20% with a hit somewhere; the sample as a whole holds those more often.
Param threshold (60%) applies to growth; output satisfied when value >= threshold, not satisfied when value < threshold.

molecule	discrete_label
COc1cc(OCc2cccc(-c3ccccc3)c2C)cc(OC)c1CN1CCCCC1C(=O)NCCOCCOCCN (stereo not given)	satisfied
COc1cccc(/C=C2\CCc3ccccc3C2=O)c1	satisfied
COc1cc(CNC(=O)CCCC/C=C/C(C)C)ccc1OCc1cn(-c2ccc(C(F)(F)F)cc2)nn1	not satisfied
COC12C=C/C(=C(/C(=O)OCc3ccccn3)C(=O)CCCCCCCCC3(OC)C=C/C(=C(/C(=O)OCc4ccccn4)C(=O)CCCCCCCC1)O3)O2	not satisfied
O=C(CSc1nnc(-c2cc(-c3ccc(Cl)cc3)nc3ccccc23)n1-c1ccccc1)Nc1ccc(Cl)cc1	satisfied
CC(=O)Oc1ccccc1C(=O)N(Cc1ccc2c(Cl)cc(Cl)c(O)c2n1)c1ccccc1	not satisfied
C#C[C@]1(O)CC[C@H]2[C@@H]3CC=C4c5sc(-c6cccc(C)c6)nc5CC[C@]4(C)[C@H]3CC[C@@]21C	satisfied
COc1ccc(S(=O)(=O)N(C)c2oc(-c3ccc(Cl)cc3)nc2C#N)cc1	satisfied
NS(=O)(=O)Oc1cccc(-c2nc3sccn3c2-c2ccccc2)c1	not satisfied
COc1cc2cc(Oc3ccc(NC(=O)Nc4ccc(Cl)c(Cl)c4)cc3)c(C)nc2cc1OCCN1CCCCC1	satisfied
O=c1ccc2nc(-c3ccccc3)nn(-c3ccccn3)c-2c1	satisfied
CCN1CCN(C(=O)[C@]23CC[C@@H](C)[C@H](C)[C@@H]2C2=CC[C@@H]4[C@@]5(C)C/C(=C/c6ccncc6)C(=O)C(C)(C)[C@@H]5CC[C@@]4(C)[C@]2(C)CC3)CC1	not satisfied
Cc1ccccc1NC(=O)Cn1cc(CN2CCN(c3ccnc4cc(Cl)ccc34)CC2)nn1	satisfied
CCOC(=O)c1cc(C(=O)c2cc(OC)cc(OC)c2)n2ccccc12	not satisfied
O=C(Nc1ccc2[nH]ncc2c1)c1csc(Nc2ccccc2)n1	not satisfied
COc1ccc(N2C(=O)/C(=C/C(Cl)=C/c3ccc([N+](=O)[O-])cc3)SC2=S)cc1	not satisfied
CCCC[N+]1(C)CCN=C1Cc1ccccc1 (stereo not given)	satisfied
COc1cccc(NC(=O)c2sc3nc(C)c(C(=O)c4ccccc4)cc3c2N)c1	not satisfied
CCOC(=O)CC1CSC(N/N=C(/C)c2cccc(C(F)(F)F)c2)=N1 (stereo not given)	satisfied
O=C1Nc2ccccc2/C1=C/c1cccn1CCCCCCn1c2ccccc2c(=O)c2ccccc21	satisfied
O=C1C=CC2(O)OC(c3ccccc3)CC(=O)C2=C1O (stereo not given)	satisfied
CN1CCN(Cc2ccc(NC(=O)c3cc(C#Cc4cnc(N)c5ncccc45)n(C)n3)cc2C(F)(F)F)CC1	not satisfied
CCN1C(=O)N(CC)C2C1NN=c1s/c(=C3\C(=O)N(C)c4ccccc43)c(=O)n12 (stereo not given)	not satisfied
COc1cc(C(=O)/C=C/c2c(-c3cccs3)nc3sc(C)cn23)cc(OC)c1OC	not satisfied
Nc1ncnc2c1N=C(c1ccc([N+](=O)[O-])cc1)CC(c1ccc3c(c1)OCO3)N2 (stereo not given)	satisfied
C=C(c1ccc(OC)c(/C=C/C(=O)c2cc(OC)c(OC)c(OC)c2)c1)c1cc(OC)c(OC)c(OC)c1	not satisfied
CN1CCN(Cc2ccc(NC(=O)c3cncc(C#Cc4cnc(N)c5ncccc45)c3)cc2Cl)CC1	satisfied
COc1ccc(NC(=O)c2ccc(Cl)cc2Cl)cc1	satisfied
Nc1ccc(N)c2c1C(=O)c1cccc([N+](=O)[O-])c1C2=O	not satisfied

----------
- Tested on: HT29 colon
- method_summary: NCI-60 one-dose screen, 48 h
- protocol_conditions: 10 µM unless noted
This is part of a sample that, as a whole, favours compounds with a hit. Of some 83,000 tested, about 20% had one in any assay. Active and inactive are the calls of the source. The calls were made as follows: active = growth percent below 10; inactive = the rest.
Labels: active, inactive

> print(dat)
                                    molecule  assayed.system  discrete.label
 1  CN(C)CC1C(=O)O[C@H]2[C@H]1CC/C(COC(=O)NCc1ccc(Cn3c(=O)sn(CCCI)c3=O)cc1)=C\CC[C@@]1(C)O[C@@H]21 (some centres not stated)      HT29 colon          active
 2  CN(C)CCOc1ccc(/C(=C(/CCCCCCCCCC[P+](c2ccccc2)(c2ccccc2)c2ccccc2)c2ccccc2)c2ccccc2)cc1      HT29 colon          active
 3  Fc1ccc(/C=C/c2cc(/C=C/c3ccc(F)cc3)n(-c3cc(F)cc(F)c3)n2)cc1      HT29 colon        inactive
 4  FC(F)(F)c1cccc(-c2nnn(Cc3cc(-c4cccc(Cl)c4)no3)n2)c1      HT29 colon        inactive
 5  Cc1nc2c(c(-c3ccccc3)n1)Cc1c(ccc3ccccc13)O2      HT29 colon        inactive
 6  CS(=O)(=O)Nc1cc(-c2ccc3ncnc(Nc4cccc(Cl)c4)c3c2)cnc1Cl      HT29 colon          active
 7  O=C(O)/C=C/c1cn(-c2ccccc2)nc1-c1ccc(F)cc1      HT29 colon        inactive
 8              CSc1nc(CC(C)C)c(C#N)c(=O)n1C      HT29 colon        inactive
 9  O=CN1N=C(c2cccc(Nc3ccncc3)c2)CC1c1ccc2c(c1)OCO2 (configuration not stated)      HT29 colon        inactive
10                CCOc1ccccc1NC(=O)CCC(=O)OC      HT29 colon        inactive
11  CC/C(=C(/c1ccc(Cl)cc1)c1ccc(OCCCN(C)C)cc1)c1ccc(OC)cc1      HT29 colon          active
12  CCOC(=O)CC1CSC(N/N=C(/C)c2cccc(C(F)(F)F)c2)=N1 (configuration not stated)      HT29 colon        inactive
13  C=C(C)[C@@H]1CC[C@]2(COCCCNCCCN)CC[C@]3(C)[C@H](CC[C@@H]4[C@@]5(C)CC[C@H](OCCCN)C(C)(C)[C@@H]5CC[C@]43C)[C@@H]12      HT29 colon          active
14  Cc1cc2c(C(C)C)c(O)c(O)c(/C=N/O)c2c(O)c1-c1c(C)cc2c(C(C)C)c(O)c(O)c(/C=N/O)c2c1O      HT29 colon          active
15  Cn1cc(-c2csc(-c3cn(C)c4ccc(F)cc34)n2)c2cnccc21      HT29 colon          active
16  C=CC(=O)Nc1ccc2ncnc(Nc3cccc(NS(=O)(=O)CCC)c3Cl)c2c1      HT29 colon          active
17        Cc1c(CC(=O)Nc2ccccc2)nnn1-c1ccccc1      HT29 colon        inactive
18  O=C(CSc1nnc(-c2ccc(Cl)c(Cl)c2)n1-c1ccccc1)Nc1ccc(C(=O)/C=C/c2ccc(Cl)cc2)cc1      HT29 colon        inactive
19  Cc1oc2ccc(O)c(CN3CCCCCC3)c2c1C(=O)Nc1ccc(C(F)(F)F)cc1      HT29 colon        inactive
20  O=C(Nc1ccccc1)Nc1ccccc1CNc1nc(Nc2ccc(OCCN3CCCC3)cc2)ncc1Cl      HT29 colon        inactive
21  COc1ccc(NC(=O)c2ccc(NC3=C(c4ccc(Cl)cc4)C(=O)NC3=O)cc2)cc1      HT29 colon        inactive
22  COc1ccc(NC(=O)CSc2oc(-c3ccccc3)nc2S(=O)(=O)c2ccc(Cl)cc2)c(OC)c1      HT29 colon        inactive

----------
- Test system: MALME-3M melanoma
- method_summary: NCI-60 one-dose screen, 48 h (100 = growth as untreated, 0 = no growth, -100 = all killed)
- protocol_conditions: 10 µM unless noted
Compounds without any hit were thinned out: in the full panel of roughly 83,000, 20% have a hit.
Flag rule - growth less than 50% flags met; the remaining entries get not met.

> print(dat)
                         chemical.structure  discrete.label
1         CCCCCCCCNC(=O)[C@@H](N)CSCOC(C)=O         not met
2  COC(=O)c1c(C(=O)OC)c2ccc3c4ncccc4ccc3n2c1C(=O)c1ccc(C)cc1         not met
3  Nc1ccc(N)c2c1C(=O)c1cccc([N+](=O)[O-])c1C2=O         not met
4  CCOC(=O)C#Cc1c(CC(=O)OCC)nnn1[C@H]1O[C@@H](CO)[C@@H]2OC(C)(C)O[C@@H]21             met
5  CC(C)CCc1nc2ccc(NCc3ccc(OCCN4CCC(C)CC4)cc3)cc2[nH]1             met
6  CC(C)(C)n1cc(-c2ccnc(NCCNS(=O)(=O)c3cccc4ccccc34)c2)c(-c2cccc(O)c2)n1         not met
